system: PC-3 prostate; assay: NCI-60 one-dose screen, 48 h (100 = growth as untreated, 0 = no growth, -100 = all killed); settings: 10 µM unless noted
This is part of a sample that, as a whole, favours compounds with a hit. Of some 83,000 tested, about 20% had one in any assay.
Threshold 70%. growth below it: YES. growth at it or above: NO.

>>> assigned_label("CCOC(=O)C1CC(=O)c2cc(OC)c(OC)cc2C1 (configuration not stated)")
"NO"
>>> assigned_label("COc1ccccc1OCC(=O)N1CCCCCC1")
"NO"
>>> assigned_label("c1ccc(CCSc2ncnc3nc[nH]c23)cc1")
"NO"
>>> assigned_label("CC(=O)c1c(C)[nH]c(-c2nc3ccc(N4CCN(C)CC4)cc3[nH]2)c1-c1ccccc1")
"YES"
>>> assigned_label("OC(c1ccccc1)c1ccccn1 (configuration not stated)")
"NO"
>>> assigned_label("COc1ccc2c(c1)OC1=C(C(=O)OC1)C2c1cc(OC)c(OC)c(OC)c1 (configuration not stated)")
"YES"
>>> assigned_label("Fc1ccc(C2CC(c3cccc(Nc4ccncc4)c3)=NN2c2ccccc2)cc1 (configuration not stated)")
"YES"
>>> assigned_label("NC(=O)c1cccc(-c2cc(C(N)=O)ccc2Cl)c1")
"YES"
>>> assigned_label("CC(=O)N1c2ccccc2NC2=C(C(=O)N(C)C2(C)C)C1C (configuration not stated)")
"YES"
>>> assigned_label("Cc1cc2cc3cc(C)c(N)cc3[n+](C)c2cc1N")
"YES"
>>> assigned_label("COc1ccc(NC(=O)c2sc3nc(C)c(C(=O)CCc4cccc(OC)c4)cc3c2N)cc1")
"NO"
>>> assigned_label("O=C1C(=O)c2c(nc3ncccn23)-c2ccccc21")
"YES"
>>> assigned_label("Cc1ccc(/C=C/C(=O)c2ccc(N)cc2)c(C)c1")
"NO"
>>> assigned_label("CCN(CC)CCCC(Nc1c2ccc(Cl)cc2nc2ccc(OC)cc12)c1ccc(Cl)cc1 (configuration not stated)")
"YES"
>>> assigned_label("C[C@@H]1CN(Cc2ccc(/C=C/c3n[nH]c4ccc5nc(-c6cn[nH]c6C(F)(F)F)c6c(c5c34)CCCC6)cc2)C[C@H](C)O1")
"YES"
>>> assigned_label("NC(=O)c1ccc[n+](CC(=O)N2CCN(c3cc4c(cc3F)c(=O)c(C(=O)O)cn4C3CC3)CC2)c1")
"NO"
>>> assigned_label("Cc1c2c(cc[n+]1Cc1ccccc1)c1ccc(OCc3ccccc3)cc1n2Cc1ccccc1")
"YES"
>>> assigned_label("NC(=O)c1cccc(-c2ccccc2N2CCCCC2)c1")
"NO"
>>> assigned_label("CN(Cc1ccccc1)c1nc(Cl)c(C2CC(c3ccc(Cl)cc3)=Cc3[nH][nH]c(=O)c32)s1 (configuration not stated)")
"NO"
>>> assigned_label("Cc1ccc(-c2csc(/N=C3\\C(=O)Nc4ccccc43)n2)cc1")
"YES"
>>> assigned_label("O=C1CCCCCCCCC(O)C(O)CCCC(c2cccs2)O1 (configuration not stated)")
"NO"
>>> assigned_label("COc1cc(/C=C/C(=O)c2c(C)oc3nc[nH]c(=O)c23)ccc1O")
"NO"
>>> assigned_label("O=C(O)CCCCCCCCCCCCCCC(=O)O")
"NO"
>>> assigned_label("COc1cc(C2NC(c3cc(OC)c(OC)c(OC)c3)C(C#N)(C#N)C2(C#N)C#N)cc(OC)c1OC (configuration not stated)")
"NO"
>>> assigned_label("Fc1ccc(C2CC(c3cccc(Nc4ccncc4)c3)=NN2c2ccc(Cl)cc2)cc1 (configuration not stated)")
"YES"
>>> assigned_label("CN1CCN(c2cnc(C(=O)Nc3cc(F)cc4cccnc34)cn2)CC1")
"YES"
>>> assigned_label("Cc1ccc(C2CC(c3cccc(Nc4ccncc4)c3)=NN2c2ccc(Cl)cc2)cc1 (configuration not stated)")
"YES"
>>> assigned_label("COc1ccc(C(=O)c2cc(C)c(OC)c(C)c2)c(OC)c1N(C(=O)C(Cl)Cl)C(=O)C(Cl)Cl")
"YES"
>>> assigned_label("O=[N+]([O-])c1cccc(-c2nc(-c3ccc(Cl)cc3Cl)cn2-c2ccccc2)c1")
"YES"
>>> assigned_label("CC(=O)N1c2ccccc2NC2=C(C(=O)N(Cc3ccccc3)C2(C)C)C1c1ccco1 (configuration not stated)")
"YES"
>>> assigned_label("CC(=O)OC1CCC2(C)C(CCC3C4CC=C(C(C)=O)C4(C)OC(=O)CC32)C1 (configuration not stated)")
"NO"
>>> assigned_label("O=C1Nc2c(ccc(Cl)c2Cl)/C1=C/c1ccc([N+](=O)[O-])cc1")
"NO"
>>> assigned_label("Nc1nnc(C(=O)c2cnc3n(c2=O)CCCCC3)s1")
"NO"
>>> assigned_label("O=S(=O)(NCCNc1nccc(-c2c(-c3ccc(F)c(O)c3)nc3occn23)n1)c1ccccc1")
"YES"
>>> assigned_label("COc1ccccc1/C=N/NC1=NC2C(N1)N(C)C(=O)N2C (configuration not stated)")
"NO"
>>> assigned_label("CCOC(=O)c1c(SC)nn(-c2cc(=O)[nH]c3ccc(Br)cc23)c1N")
"NO"
>>> assigned_label("CC[N+](CC)(CCCC(C)[N+]1(Cc2ccccc2)C(C)=CC=C1C)Cc1ccccc1 (configuration not stated)")
"NO"
>>> assigned_label("N#C/C(=C\\c1ccc(Br)cc1)n1nnc2cccc(F)c21")
"YES"
>>> assigned_label("COc1cccc(C(Cc2ccccc2)Nc2ccccc2)c1OC (configuration not stated)")
"NO"
